Origin of values: ChEMBL document CHEMBL1153438

test system: A549; test: Cytotoxicity against human A549 cells after 72 hrs by SRB method; type: functional, cell-based; settings: A549, 72 h
pIC50: −log10 of the molar value.
Quick rule: pIC50 of at least 7 means Met, below that means Not met.

Some entries whose results are on file:
INSERT INTO assay_data (structure_smiles_string, label_value) VALUES
  ('COc1cc([C@@H]2c3cc4c(cc3[C@@H](N[C@@H](CCSC)C(=O)OCCCn3cc(F)c(=O)[nH]c3=O)[C@H]3COC(=O)[C@H]23)OCO4)cc(OC)c1O', 'Not met'),
  ('COc1cc([C@@H]2c3cc4c(cc3[C@@H](N[C@@H](Cc3ccccc3)C(=O)OCCCCn3cc(F)c(=O)[nH]c3=O)[C@H]3COC(=O)[C@H]23)OCO4)cc(OC)c1O', 'Not met');

-- ask Does COc1cc([C@@H]2c3cc4c(cc3[C@@H](N[C@H](C(=O)OCCCn3cc(F)c(=O)[nH]c3=O)[C@@H](C)O)[C@H]3COC(=O)[C@H]23)OCO4)cc(OC)c1O have a reported pIC50 of at least 7?
-- reply Not met

-- ask Does COc1cc([C@@H]2c3cc4c(cc3[C@@H](N[C@@H](CC(C)C)C(=O)OCCCCn3cc(F)c(=O)[nH]c3=O)[C@H]3COC(=O)[C@H]23)OCO4)cc(OC)c1O have a reported pIC50 of at least 7?
-- reply Met

-- ask Does COc1cc([C@@H]2c3cc4c(cc3[C@@H](N[C@@H](Cc3ccccc3)C(=O)OCCCn3cc(F)c(=O)[nH]c3=O)[C@H]3COC(=O)[C@H]23)OCO4)cc(OC)c1O have a reported pIC50 of at least 7?
-- reply Not met

-- ask Does COc1cc([C@@H]2c3cc4c(cc3[C@H](O)[C@H]3COC(=O)[C@H]23)OCO4)cc(OC)c1OC have a reported pIC50 of at least 7?
-- reply Not met

-- ask Does COc1cc([C@@H]2c3cc4c(cc3[C@@H](N[C@@H](Cc3ccc(O)cc3)C(=O)OCCCn3cc(F)c(=O)[nH]c3=O)[C@H]3COC(=O)[C@H]23)OCO4)cc(OC)c1O have a reported pIC50 of at least 7?
-- reply Not met

-- ask Does COc1cc([C@@H]2c3cc4c(cc3[C@@H](N[C@@H](CC(C)C)C(=O)OCCCn3cc(F)c(=O)[nH]c3=O)[C@H]3COC(=O)[C@H]23)OCO4)cc(OC)c1O have a reported pIC50 of at least 7?
-- reply Met

-- ask Does COc1cc([C@@H]2c3cc4c(cc3[C@@H](N[C@H](C(=O)OCCCn3cc(F)c(=O)[nH]c3=O)C(C)C)[C@H]3COC(=O)[C@H]23)OCO4)cc(OC)c1O have a reported pIC50 of at least 7?
-- reply Not met

-- ask Does COc1cc([C@@H]2c3cc4c(cc3[C@@H](N[C@@H](Cc3ccccc3)C(=O)OCCCCCn3cc(F)c(=O)[nH]c3=O)[C@H]3COC(=O)[C@H]23)OCO4)cc(OC)c1O have a reported pIC50 of at least 7?
-- reply Met
